- Target Desc: Proteasome Macropain subunit MB1 (Homo sapiens, UniProt P28074)
- Sequence (P28074 whole entry): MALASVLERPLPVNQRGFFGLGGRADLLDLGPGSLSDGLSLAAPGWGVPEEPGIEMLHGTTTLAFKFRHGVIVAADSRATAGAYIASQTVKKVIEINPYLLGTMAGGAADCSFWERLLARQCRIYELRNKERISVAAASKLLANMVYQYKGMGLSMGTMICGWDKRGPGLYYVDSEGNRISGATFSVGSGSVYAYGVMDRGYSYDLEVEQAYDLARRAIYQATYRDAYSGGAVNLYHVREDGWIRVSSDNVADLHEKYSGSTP
- Assay Name: Inhibition of 20S proteasome beta-5 in human erythrocytes using Suc-LLVY-AMC as substrate by AK-740 assay
Reported Endpoint: Ki

Prompt: Recorded Ki of CCCCCCCCCC(=O)N[C@@H](Cc1ccccc1)C(=O)N[C@H]1CCCCNC(=O)/C=C/[C@H](CCC(=O)O)NC1=O , please.
Completion: > 10 µM
